This collection of values is drawn from patent US20260209175A1.

- assay summary: Oxalate salt solubility by HPLC
- Format: physicochemical
- condition summary: pH 1.2 medium, simulated gastric fluid, thermodynamic from solid, mother liquors adjusted to the desired pH, read-out: Solubility (mg/mL) of free base
Counter-ions that a name gives are not always drawn.
property: solubility (mg/mL)
# unit: mg/mL | format: bare number

Identify the reported solubility for the following entry. COc1ccc2[nH]cc(CCN(C)C)c2c1 [Oxalate salt, 5-MeO-DMT oxalate] 19

###

- assay summary: Thermo-Gravimetric Analysis (TGA), thermal stability
- Assay type: physicochemical
- condition summary: 10° C./min ramp, nitrogen
Where a name gives a salt, the structure may show the parent alone.
property: thermally stable up to (TGA) (°C)
# unit: °C | format: bare number

Would you please look over these solved cases?
COc1ccc2[nH]cc(CCN(C)C)c2c1 [Fumarate salt, 5-MeO-DMT fumarate]: 150
COc1ccc2[nH]cc(CCN(C)C)c2c1 [Saccharinate salt, 5-MeO-DMT saccharinate]: 200
COc1ccc2[nH]cc(CCN(C)C)c2c1 [free base, 5-methoxy-N,N-dimethyltryptamine]: 150

Identify the reported thermally stable up to (TGA) for the following entry. Br.COc1ccc2[nH]cc(CCN(C)C)c2c1 [Hydrobromide salt, 5-MeO-DMT hydrobromide] 220

Identify the reported thermally stable up to (TGA) for the following entry. COc1ccc2[nH]cc(CCN(C)C)c2c1 [Benzenesulfonate salt, 5-MeO-DMT benzenesulfonate] 250
